B1: PPFIA4 (parent)
chain: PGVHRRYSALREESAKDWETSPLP

Variants of: B1
Assay: protein stability index of a GFP-peptide fusion (GPS, HEK-293T) (PSI 1-6); higher = more stable;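 note: lentivirally expressed fusions sorted by FACS into six bins by GFP to DsRed ratio, PSI derived from sequencing read proportions per bin multiplied by bin number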
Details: c terminus: a fixed tail appended
measured parameter: protein stability index
Simply state the number, no unit and no words.

Given item `R11C` , the value recorded as its protein stability index is 4.37

Entry `P1G` — recorded protein stability index = 4.03

For record `P22Q` the listed protein stability index is 4.63

Memo: `L10C` , reported protein stability index: 2.28

The variant identified as `E12P` registered its protein stability index at 3.88

Would you kindly look at the next entry?
# protein stability index of `S8H` = 3.76
